Reference for the values: PubChem BioAssay AID179

test system: CEM cells HIV-1 protection, formazan growth assay; assay: NCI AIDS Antiviral Assay;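 active means compounds giving half or more protection of infected cells from virus-caused growth loss, again on retest; inactive means the rest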
Outcomes: active, inactive

{"COMPOUND": "COC(=O)C(CCc1ccccc1I)C1=CCC2(CC1)OCCO2 (centres undefined)", "DISCRETE LABEL": "inactive"}
{"COMPOUND": "COC(=O)c1ncn(C(C(=O)OC)C(=O)OC)c1O", "DISCRETE LABEL": "inactive"}
{"COMPOUND": "Cc1ccc(S(=O)(=O)O/N=C(/CC/C(=N\\OS(=O)(=O)c2ccc(C)cc2)c2ccccc2)c2ccccc2)cc1", "DISCRETE LABEL": "inactive"}
{"COMPOUND": "CCN(CCNc1ccc(C)c2sc3ccccc3c(=O)c12)CC(C)(C)O", "DISCRETE LABEL": "inactive"}
{"COMPOUND": "Cc1cc2c(c3oc(=O)ccc13)[C@@H](OC(=O)C13CCC(C)(C(=O)O1)C3(C)C)[C@@H](OC(=O)C13CCC(C)(C(=O)O1)C3(C)C)C(C)(C)O2 (some centres undefined)", "DISCRETE LABEL": "active"}
{"COMPOUND": "Cc1ccc2oc(=O)c(C#N)c(/C=C/c3cccc4ccccc34)c2c1", "DISCRETE LABEL": "inactive"}
{"COMPOUND": "NCCCCNCCCNC(=O)c1nc(-c2csc(CCN)n2)sc1Cl", "DISCRETE LABEL": "inactive"}
{"COMPOUND": "CN(C(=O)C12C3C4C5C3C1(C(=O)C13C6C7C8C6C1C8C73)C5C42)C(C)(C)C (centres undefined)", "DISCRETE LABEL": "inactive"}
{"COMPOUND": "c1ccc(C2=C(c3ccccc3)C23SCCS3)cc1", "DISCRETE LABEL": "inactive"}
{"COMPOUND": "O=C1N=C(c2ccccc2)O/C1=C\\c1ccccc1", "DISCRETE LABEL": "inactive"}
{"COMPOUND": "COc1ccc(S(=O)(=O)Cc2ccc(C(=O)O)cc2)cc1", "DISCRETE LABEL": "inactive"}
{"COMPOUND": "ClCCCc1ccccc1C1=NCCc2ccccc21", "DISCRETE LABEL": "inactive"}
{"COMPOUND": "COc1cc(/C=C/C(=O)c2ccc(O)c(OC)c2)ccc1O", "DISCRETE LABEL": "inactive"}
{"COMPOUND": "CN(C)C=Nc1nncc2n[nH]nc12", "DISCRETE LABEL": "inactive"}
{"COMPOUND": "CCCC1(CCC)c2cc(/C=N\\O)ccc2-c2ccc(-c3ccc(C(C)(C)C)cc3)cc21", "DISCRETE LABEL": "inactive"}
{"COMPOUND": "Cn1c2ccccc2c2nn3cnnc3nc21", "DISCRETE LABEL": "inactive"}
{"COMPOUND": "Cc1nc2c(=O)[nH]cnc2o1", "DISCRETE LABEL": "inactive"}
{"COMPOUND": "C=C(C)CS(=O)(=O)O", "DISCRETE LABEL": "inactive"}
{"COMPOUND": "N#CC1(C#N)C2CCCCC23OC(=N)C1(C#N)C(c1ccco1)O3 (centres undefined)", "DISCRETE LABEL": "inactive"}
{"COMPOUND": "OCC1CC(F)C(n2cnc3c(NO)ncnc32)O1 (centres undefined)", "DISCRETE LABEL": "inactive"}
{"COMPOUND": "CC1(C)OC(=O)C(C#N)=C1/C=C1\\OC(=O)c2ccccc21", "DISCRETE LABEL": "inactive"}
{"COMPOUND": "O=C1[C@H](O)[C@@H]2CCC[C@@]23CCCN13", "DISCRETE LABEL": "inactive"}
{"COMPOUND": "O=C1CCCCCCCCCCC1CCCCCBr (centres undefined)", "DISCRETE LABEL": "inactive"}
{"COMPOUND": "C=CC1(c2ccccc2Cl)N/C(=C/OCC)CO1 (centres undefined)", "DISCRETE LABEL": "inactive"}
